measurement_description: Pharmacokinetic profile after single oral, intranasal and intravenous betahistine in beagle dogs, Example 5
Type: in vivo
experimental_context: male, beagle, dog, in vivo, po, 24 mg/kg, Betahistine Plasma Concentration
outcome_measure: concentration at 5 min (ng/mL)

> print(dat)
   smiles.notation         outcome.measure  quantitative.result
1     CNCCc1ccccn1  concentration at 5 min                 4.69

###

measurement_description: Pharmacokinetic profile after single oral, intranasal and intravenous betahistine in beagle dogs, Example 5
Type: in vivo
experimental_context: male, beagle, dog, in vivo, po, 12 mg/kg, Betahistine Plasma Concentration
outcome_measure: concentration at 0 h (ng/mL)

> print(dat)
   smiles.notation  quantitative.result
1     CNCCc1ccccn1                    0

###

measurement_description: Pharmacokinetic profile after single oral, intranasal and intravenous betahistine in beagle dogs, Example 5
Format: in vivo
experimental_context: female, beagle, dog, in vivo, po, 48 mg/kg, Betahistine Plasma Concentration
outcome_measure: concentration at 0.167 h (ng/mL)

> print(dat)
   smiles.notation           outcome.measure  units.label  quantitative.result
1     CNCCc1ccccn1  concentration at 0.167 h        ng/mL                 9.24

###

measurement_description: Pharmacokinetic profile after single oral, intranasal and intravenous betahistine in beagle dogs, Example 5
Format: in vivo
experimental_context: both sexes, beagle, dog, in vivo, po, 24 mg/kg, Betahistine Plasma Concentration
outcome_measure: concentration at 2 h (ng/mL)

> print(dat)
                     molecule       outcome.measure  units.label  quantitative.result
1  CNCCc1ccccn1 [betahistine]  concentration at 2 h        ng/mL                 2.83

###

measurement_description: Pharmacokinetic profile after single oral, intranasal and intravenous betahistine in beagle dogs, Example 5
Type: in vivo
experimental_context: female, beagle, dog, in vivo, po, 48 mg/kg, AUC(0-6)
outcome_measure: AUC(0-t)

> print(dat)
   smiles.notation  outcome.measure        result
1     CNCCc1ccccn1         AUC(0-t)  77.5 ng·h/mL

###

measurement_description: Pharmacokinetic profile after single oral, intranasal and intravenous betahistine in beagle dogs, Example 5
Format: in vivo
experimental_context: male, beagle, dog, in vivo, po, 48 mg/kg, Betahistine Plasma Concentration
outcome_measure: concentration at 0.5 h (ng/mL)

> print(dat)
                     compound  units.label  quantitative.result
1  CNCCc1ccccn1 [betahistine]        ng/mL                 33.7

###

measurement_description: Pharmacokinetic profile after single oral, intranasal and intravenous betahistine in beagle dogs, Example 5
Assay type: in vivo
experimental_context: male, beagle, dog, in vivo, iv, 0.44 mg/kg, AUC(0-t)
Protocol: In this study, the pharmacokinetic profile of betahistine was evaluated after a single dose administration of betahistine in male and female beagle dogs (age 5-7 months; weight of 5-11 kg, within a range of 3 kg for each sex) for three routes of administration: oral, intranasal, and intravenous. On Day 1 of the study, betahistine (BH) was delivered orally at a dose of 12 mg/kg, 24 mg/kg, or 48 mg/kg. Each treatment group comprised 8 animals (4 males and 4 females). […]
outcome_measure: AUC(0-t) (ng·h/mL)

> print(dat)
   smiles.notation  units.label  quantitative.result
1     CNCCc1ccccn1      ng·h/mL                 19.5
